Cited source: paper PMC11455612

molecular target: phosphatidylserine synthase 1 (PSS1) (Homo sapiens); assay: cryo-EM structure at […] Å; type: biochemical
property-name: IC50 (µM)
Answers are plain numbers, in µM.

So what's the measured IC50 for this one? CC(F)(F)CN1C(=O)c2[nH]nc(-c3cccc4[nH]c(=O)oc34)c2[C@@H]1c1ccc(Oc2cc(C(F)(F)F)cc(C(F)(F)F)c2)cc1
1.65

###

target: phosphatidylserine synthase 1 (PSS1) (Homo sapiens, UniProt P48651, P269S); type: biochemical
property-name: pIC50
Numbers only, as −log10 of the molar value.

So what's the measured pIC50 for this one? CC(F)(F)CN1C(=O)c2[nH]nc(-c3cccc4[nH]c(=O)oc34)c2[C@@H]1c1ccc(Oc2cc(C(F)(F)F)cc(C(F)(F)F)c2)cc1 [DS, DS55980254]
5.90
